Data credit: ChEMBL document CHEMBL3352420

- assay_details: Oral bioavailability in fed CD-1 mouse at 10 mg/kg as single dose
- Assay type: ADME, organism-based
- conditions: in vivo
readout_label: bioavailability (%)
Number in %, nothing else.

Q: For the compound shown here, `CNC(=O)Nc1ncc(SCCCOC)cc1Oc1cccnc1C` , give the reported bioavailability.
Result: 67.8

---

- assay_details: Plasma protein binding in mouse
- Format: ADME
- conditions: read-out: PPB (converted)
readout_label: fraction unbound

Q: For the compound `CNC(=O)Nc1ncc(SCCCOC)cc1Oc1cccnc1C` , what fraction unbound is on record?
Result: 0.26

---

- assay_details: Plasma protein binding in human
- Assay type: ADME, cell-free
- conditions: read-out: PPB (converted)
readout_label: fraction unbound

Q: Consider the compound `CNC(=O)Nc1ncc(SCCCOC)cc1Oc1cccnc1C` and give its measured fraction unbound.
Result: 0.38

---

Entries and their pEC50 values follow.
- target_entity: Hexokinase-4 (Homo sapiens, UniProt P35557)
- Sequence (P35557 whole entry, the tested form may be a part, canonical isoform): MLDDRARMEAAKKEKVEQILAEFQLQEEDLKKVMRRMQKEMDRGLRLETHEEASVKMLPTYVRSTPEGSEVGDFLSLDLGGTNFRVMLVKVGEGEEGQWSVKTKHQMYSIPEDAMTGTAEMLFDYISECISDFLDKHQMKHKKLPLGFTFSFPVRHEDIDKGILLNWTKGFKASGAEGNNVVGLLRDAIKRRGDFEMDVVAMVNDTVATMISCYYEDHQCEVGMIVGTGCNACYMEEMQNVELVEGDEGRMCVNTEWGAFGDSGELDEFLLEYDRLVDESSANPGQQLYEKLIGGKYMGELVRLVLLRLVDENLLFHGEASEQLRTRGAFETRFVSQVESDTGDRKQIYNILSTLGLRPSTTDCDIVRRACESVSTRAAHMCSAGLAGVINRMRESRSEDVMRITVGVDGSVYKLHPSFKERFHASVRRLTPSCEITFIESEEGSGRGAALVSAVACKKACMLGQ
- assay_details: Activation of purified human glucokinase isoform 3 (13 to 466 aa) using 5 mM glucose by spectrophotometry in presence of NAD+ and glucose 6-phosphate dehydrogenase
The read-out pEC50 is expressed as -log10 of concentration in moles per litre.

[
  {
    "compound_string": "CNC(=O)Nc1ncc(SCC2CCOCC2)cc1Oc1cccnc1C",
    "pEC50": 6.50
  },
  {
    "compound_string": "CCc1ncccc1Oc1cc(Sc2ccccn2)cnc1NC(=O)NCc1ccncc1",
    "pEC50": 6.02
  }
]

Please turn your attention to the following entry.
Q: # lookup: pEC50 of `CNC(=O)Nc1ncc(SC2CCN(S(C)(=O)=O)CC2)cc1Oc1cccnc1C`
Result: 6.71

---

- assay_details: Extraction ratio in mouse liver microsomes at 1 uM up to 20 mins by LC-MS/MS analysis
- Assay type: ADME
- conditions: read-out: ERH
Flag rule - hepatic extraction ratio at 20 min, 1 µM less than 0.8 flags Condition met; the remaining entries get Condition not met.

[
  {
    "compound_string": "CNC(=O)Nc1ncc(SC2CCN(C(=O)OC(C)(C)C)CC2)cc1Oc1cccnc1C",
    "class_label": "Condition not met"
  },
  {
    "compound_string": "CNC(=O)Nc1ncc(SCCCOC)cc1Oc1cccnc1C",
    "class_label": "Condition met"
  },
  {
    "compound_string": "CNC(=O)Nc1ncc(Sc2ccccn2)cc1Oc1cccnc1C",
    "class_label": "Condition met"
  },
  {
    "compound_string": "CCn1nccc1Oc1cc(Sc2ccccn2)cnc1NC(=O)NC",
    "class_label": "Condition not met"
  }
]

Q: Criterion: hepatic extraction ratio at 20 min, 1 µM strictly below 0.8. Is it met by `CNC(=O)Nc1ncc(SCCCO)cc1Oc1cccnc1C` ?
Result: Condition met

Q: How about `CNC(=O)Nc1ncc(SC2CCN(S(C)(=O)=O)CC2)cc1Oc1cccnc1C` ?
Result: Condition met

---

- assay_details: AUClast in fed CD-1 mouse at 1 mg/kg, iv as single dose
- Assay type: ADME, organism-based
- Design: time 0 - last, dose 1 mg/kg, route intravenous
- conditions: plasma
readout_label: AUC(0-t) (ng·h/mL)
Quick reminder: number only, in ng·h/mL, skip the unit.

Q: Which value of AUC(0-t) has been reported for `CNC(=O)Nc1ncc(SCCCOC)cc1Oc1cccnc1C` in the records?
Result: 762

---

- assay_details: AUC (infinity) in fed CD-1 mouse at 10 mg/kg, po as single dose
- Format: ADME, organism-based
- Parameters: time infinity, dose 10 mg/kg, route oral
- conditions: plasma
readout_label: AUC(0-inf) (ng·h/mL)
Give just the number in ng·h/mL; leave the unit off.

Q: Can you look up the measured AUC(0-inf) of `CNC(=O)Nc1ncc(SCCCOC)cc1Oc1cccnc1C` for me?
Result: 5240

---

- assay_details: Volume of distribution at steady state in fed CD-1 mouse at 1 mg/kg, iv as single dose
- Assay type: ADME, organism-based
- Parameters: dose 1 mg/kg, route intravenous
- conditions: in vivo, read-out: Vdss
readout_label: Vd
Please state the value followed by its unit.

Q: Would you kindly share the measured Vd for `CNC(=O)Nc1ncc(SCCCOC)cc1Oc1cccnc1C` ?
Result: 1.98 L/kg

---

- assay_details: Extraction ratio in human liver microsomes at 1 uM up to 20 mins by LC-MS/MS analysis
- Format: ADME
- conditions: read-out: ERH
# binarize hepatic extraction ratio at 20 min, 1 µM: threshold 0.4 inclusive, high side t, low side f

[
  {
    "compound_string": "CNC(=O)Nc1ncc(SC2CCOCC2)cc1Oc1cccnc1C",
    "class_label": "t"
  },
  {
    "compound_string": "CNC(=O)Nc1ncc(SCC2CCOCC2)cc1Oc1cccnc1C",
    "class_label": "t"
  },
  {
    "compound_string": "CNC(=O)Nc1ncc(SCCCOC)cc1Oc1cccnc1C",
    "class_label": "f"
  }
]

Q: Kindly determine if hepatic extraction ratio at 20 min, 1 µM recorded for `CNC(=O)Nc1ncc(SCc2ccccc2)cc1Oc1cccnc1C` is above or exactly 0.4.
Result: t

Q: Field entry: `CNC(=O)Nc1ncc(Sc2ccccn2)cc1Oc1cccnc1C`
Result: f

Q: Cool, now `CNC(=O)Nc1ncc(SC2CCN(C(C)=O)CC2)cc1Oc1cccnc1C`
Result: t

Q: Further, for `CNC(=O)Nc1ncc(SC2CCN(C(=O)OC(C)(C)C)CC2)cc1Oc1cccnc1C` ?
Result: t

---

- assay_details: Tmax in fed CD-1 mouse at 10 mg/kg, po as single dose
- Format: ADME, organism-based
- Parameters: dose 10 mg/kg, route oral
- conditions: in vivo
readout_label: Tmax (min)
Report only the number, with the unit min understood.

Q: Name the recorded Tmax for `CNC(=O)Nc1ncc(SCCCOC)cc1Oc1cccnc1C` .
Result: 30

---

- assay_details: AUClast in fed CD-1 mouse at 10 mg/kg, po as single dose
- Type: ADME, organism-based
- Set-up: time 0 - last, dose 10 mg/kg, route oral
- conditions: plasma
readout_label: AUC(0-t)

Q: # get_value(readout='AUC(0-t)', item= `CNC(=O)Nc1ncc(SCCCOC)cc1Oc1cccnc1C` )
Result: 5030 ng·h/mL

---

- target_entity: Hexokinase-4 (Homo sapiens, UniProt P35557)
- assay_details: Activation of purified human glucokinase isoform 3 (13 to 466 aa) using 5 mM glucose by spectrophotometry in presence of NAD+ and glucose 6-phosphate dehydrogenase
readout_label: pEC50
Bear in mind: pEC50 is minus log10 of a mol/L concentration; give just that figure.

[
  {
    "compound_string": "CNC(=O)Nc1ncc(SCc2ccccc2)cc1Oc1cccnc1C",
    "readout_label": "pEC50",
    "measured": 6.76
  },
  {
    "compound_string": "CNC(=O)Nc1ncc(SCCCO)cc1Oc1cccnc1C",
    "readout_label": "pEC50",
    "measured": 6.26
  },
  {
    "compound_string": "CCc1ncccc1Oc1cc(Sc2ccccn2)cnc1NC(=O)NCCO",
    "readout_label": "pEC50",
    "measured": 5.67
  }
]

Q: State the recorded pEC50 for this entry: `CCNC(=O)Nc1ncc(Sc2ccccn2)cc1Oc1cccnc1CC`
Result: 6.69

Q: Also `CNC(=O)Nc1ncc(SCCCOC)cc1Oc1cccnc1C` , if possible.
Result: 6.74

Q: What about this molecule? `CCc1ncccc1Oc1cc(Sc2ccccn2)cnc1NC(=O)NCc1ccc(O)cc1`
Result: 6.76

---

- target_entity: Hexokinase-4 (Homo sapiens)
- assay_details: Activation of purified human glucokinase isoform 3 (13 to 466 aa) using 5 mM glucose by spectrophotometry in presence of NAD+ and glucose 6-phosphate dehydrogenase in presence of 4% HSA
- conditions: read-out: EC50
readout_label: pEC50
// pEC50 here means minus log10 of the molar concentration (mol/L)

Here's what some known entries look like.
[
  {
    "compound_string": "CCc1ncccc1Oc1cc(Sc2ccccn2)cnc1NC(=O)NCc1cccnc1",
    "pEC50": 5.71
  },
  {
    "compound_string": "CNC(=O)Nc1ncc(SC2CCN(C(C)=O)CC2)cc1Oc1cccnc1C",
    "pEC50": 6.71
  }
]

Q: // lookup pEC50 | system=Hexokinase-4 (Homo sapiens) | key= `CCc1ncccc1Oc1cc(Sc2ccccn2)cnc1NC(N)=O`
Result: 5.35

Q: Cool, now `CCn1nccc1Oc1cc(Sc2ccccn2)cnc1NC(=O)NC`
Result: 6.33

Q: Record: `CNC(=O)Nc1ncc(SCC2CCOCC2)cc1Oc1cccnc1C`
Result: 6.36

Q: Would you mind doing `CNC(=O)Nc1ncc(SCCCO)cc1Oc1cccnc1C` as well?
Result: 6.15

Q: Thanks! And `CNC(=O)Nc1ncc(SC2CCN(C(=O)OC(C)(C)C)CC2)cc1Oc1cccnc1C` ?
Result: 6.26

Q: Next molecule up: `CCc1ncccc1Oc1cc(Sc2ccccn2)cnc1NC(=O)NCc1ccc(O)cc1`
Result: 5.82

Q: Same read-out for `CNC(=O)Nc1ncc(SCCCOC)cc1Oc1cccnc1C` ?
Result: 6.51

Q: Okay, and `CCc1ncccc1Oc1cc(Sc2ccccn2)cnc1NC(=O)NCc1ccccn1` ?
Result: 5.40
